- target_entity: Mineralocorticoid receptor (Homo sapiens)
- assay_name: Inhibitory activity (IC50) against human mineralocorticoid receptor expressed in CV-1 cells
- Type: cell-based
Exercise: for every item that follows, state its recorded IC50.

Given the molecule `CC1=CC(C)(C)Nc2ccc3c(c21)/C(=C/c1cc(F)ccc1F)Oc1ccccc1-3` , what is its reported IC50?
> 10 µM

# repeat for `CC1=CC(C)(C)Nc2ccc3c(c21)/C(=C/c1ccccc1C)Oc1ccccc1-3`
> 10 µM

Now look at this entry.
Given the molecule `CC1=CC(C)(C)Nc2ccc3c(c21)/C(=C/c1ccc(F)c(F)c1)Oc1ccccc1-3` , what is its reported IC50?
> 10 µM

* * *

- target_entity: Estrogen receptor (Homo sapiens, UniProt Q92731+P03372)
- measurement_parameters: cv-1
- Description: IC50 determined against human estrogen receptor in CV-1 cells
result_type: IC50

Check out these entries, answers already filled in.
Fill in the recorded IC50 for this compound, with Estrogen receptor (Homo sapiens, UniProt Q92731+P03372) as test system: `CC1=CC(C)(C)Nc2ccc3c(c21)/C(=C/c1cccc(F)c1)Oc1ccccc1-3`
> 10 µM

# repeat for `CC1=CC(C)(C)Nc2ccc3c(c21)/C(=C/c1cc(F)ccc1F)Oc1ccccc1-3`
> 10 µM

Batch request: IC50 per item, same order as input.
1. CC1=CC(C)(C)Nc2ccc3c(c21)/C(=C/c1ccccc1)Oc1ccccc1-3
2. CC1=CC(C)(C)Nc2ccc3c(c21)/C(=C/c1ccc(F)c(F)c1)Oc1ccccc1-3
3. CC1=CC(C)(C)Nc2ccc3c(c21)/C(=C/c1ccccc1C)Oc1ccccc1-3

1. > 10 µM
2. > 10 µM
3. < 0.02 µM

* * *

- target_entity: Mineralocorticoid receptor (Homo sapiens, UniProt P08235)
- Sequence (P08235 whole entry): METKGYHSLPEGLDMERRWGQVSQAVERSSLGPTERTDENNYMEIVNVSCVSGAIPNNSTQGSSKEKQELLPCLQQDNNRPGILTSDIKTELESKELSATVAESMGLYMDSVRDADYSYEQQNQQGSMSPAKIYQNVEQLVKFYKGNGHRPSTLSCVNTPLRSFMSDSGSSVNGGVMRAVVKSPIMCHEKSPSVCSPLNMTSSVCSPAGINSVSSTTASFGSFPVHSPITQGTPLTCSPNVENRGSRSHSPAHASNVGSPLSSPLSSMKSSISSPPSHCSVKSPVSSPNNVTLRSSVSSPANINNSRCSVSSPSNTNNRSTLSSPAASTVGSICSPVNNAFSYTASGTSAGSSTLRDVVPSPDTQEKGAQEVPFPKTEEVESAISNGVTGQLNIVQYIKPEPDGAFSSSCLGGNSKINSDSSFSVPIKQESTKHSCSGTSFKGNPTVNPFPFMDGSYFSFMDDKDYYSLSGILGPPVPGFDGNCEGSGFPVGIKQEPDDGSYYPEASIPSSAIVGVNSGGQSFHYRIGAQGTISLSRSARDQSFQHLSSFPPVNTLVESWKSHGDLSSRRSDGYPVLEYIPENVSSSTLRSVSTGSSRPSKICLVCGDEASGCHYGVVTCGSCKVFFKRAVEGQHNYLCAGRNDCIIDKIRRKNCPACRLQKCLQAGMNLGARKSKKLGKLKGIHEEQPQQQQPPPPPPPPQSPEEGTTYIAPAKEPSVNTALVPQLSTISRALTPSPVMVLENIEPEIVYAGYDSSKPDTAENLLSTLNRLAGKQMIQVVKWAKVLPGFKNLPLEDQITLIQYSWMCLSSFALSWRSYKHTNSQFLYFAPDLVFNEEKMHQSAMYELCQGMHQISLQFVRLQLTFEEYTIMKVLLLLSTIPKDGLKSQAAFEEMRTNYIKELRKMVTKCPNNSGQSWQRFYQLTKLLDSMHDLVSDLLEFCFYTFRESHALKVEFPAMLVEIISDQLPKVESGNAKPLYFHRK
- assay_name: Inhibitory activity (IC50) against human mineralocorticoid receptor expressed in CV-1 cells
- Format: functional, cell-based
result_type: IC50 (µM)
One number for each entry, in µM.

Given the compound `CC1=CC(C)(C)Nc2ccc3c(c21)/C(=C/c1ccccc1)Oc1ccccc1-3` , what is its reported IC50?
3

* * *

- target_entity: Progesterone receptor (Homo sapiens, UniProt P06401)
- Sequence (P06401 whole entry): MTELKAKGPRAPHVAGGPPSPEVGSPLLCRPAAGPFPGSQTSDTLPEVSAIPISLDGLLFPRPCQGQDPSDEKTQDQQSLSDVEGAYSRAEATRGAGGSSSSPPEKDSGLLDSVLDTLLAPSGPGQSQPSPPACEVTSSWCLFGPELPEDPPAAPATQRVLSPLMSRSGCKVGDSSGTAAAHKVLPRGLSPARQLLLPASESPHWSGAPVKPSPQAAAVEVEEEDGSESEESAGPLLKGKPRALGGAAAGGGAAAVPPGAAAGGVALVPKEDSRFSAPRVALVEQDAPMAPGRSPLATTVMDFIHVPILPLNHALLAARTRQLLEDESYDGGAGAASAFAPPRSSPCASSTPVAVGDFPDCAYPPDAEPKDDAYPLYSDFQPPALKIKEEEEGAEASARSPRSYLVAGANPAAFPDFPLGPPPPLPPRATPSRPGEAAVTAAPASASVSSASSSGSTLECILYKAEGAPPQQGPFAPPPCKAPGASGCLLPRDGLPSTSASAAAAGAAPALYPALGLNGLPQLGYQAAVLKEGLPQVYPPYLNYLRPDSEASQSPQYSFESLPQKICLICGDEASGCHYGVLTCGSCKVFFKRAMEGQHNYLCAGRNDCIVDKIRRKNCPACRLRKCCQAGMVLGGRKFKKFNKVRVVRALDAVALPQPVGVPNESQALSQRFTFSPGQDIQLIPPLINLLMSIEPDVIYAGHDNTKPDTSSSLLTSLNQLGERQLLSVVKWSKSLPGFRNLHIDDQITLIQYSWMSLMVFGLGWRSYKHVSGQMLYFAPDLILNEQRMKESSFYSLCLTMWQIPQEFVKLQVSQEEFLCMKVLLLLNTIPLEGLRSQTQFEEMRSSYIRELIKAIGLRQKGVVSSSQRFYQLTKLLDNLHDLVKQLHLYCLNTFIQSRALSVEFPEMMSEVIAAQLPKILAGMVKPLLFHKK
result_type: Ki (nM)
Give bare numbers, in nM.

Fill in the recorded Ki for this compound, with Progesterone receptor (Homo sapiens, UniProt P06401) as test system: `CC1=CC(C)(C)Nc2ccc3c(c21)/C(=C/c1ccccc1Cl)Oc1ccccc1-3`
1.3

# repeat for `CC1=CC(C)(C)Nc2ccc3c(c21)/C(=C/c1cccc(F)c1F)Oc1ccccc1-3`
24.3

# repeat for `COc1cccc(/C=C2\Oc3ccccc3-c3ccc4c(c32)C(C)=CC(C)(C)N4)c1`
53.3

Now look at this entry.
Fill in the recorded Ki for this compound, with Progesterone receptor (Homo sapiens, UniProt P06401) as test system: `CC1=CC(C)(C)Nc2ccc3c(c21)/C(=C/c1ccccc1C)Oc1ccccc1-3`
0.66

* * *

- target_entity: UniProt P06401
- assay_name: Effective concentration (EC50) against human progesterone receptor expressed in CV-1 cell
Exercise: for every item that follows, state its recorded EC50.

Check out these entries, answers already filled in.
Given the compound `CC1=CC(C)(C)Nc2ccc3c(c21)/C(=C/c1cccc(F)c1F)Oc1ccccc1-3` , what is its reported EC50?
26.3 nM

# repeat for `CC1=CC(C)(C)Nc2ccc3c(c21)/C(=C/c1ccc(F)cc1F)Oc1ccccc1-3`
22 nM

# repeat for `CC1=CC(C)(C)Nc2ccc3c(c21)/C(=C/c1c(F)cccc1F)Oc1ccccc1-3`
32 nM

# repeat for `CC1=CC(C)(C)Nc2ccc3c(c21)/C(=C/c1ccc(Cl)cc1)Oc1ccccc1-3`
139 nM

# repeat for `COc1cccc(/C=C2\Oc3ccccc3-c3ccc4c(c32)C(C)=CC(C)(C)N4)c1`
> 10000 nM

# repeat for `CC1=CC(C)(C)Nc2ccc3c(c21)/C(=C/c1ccccc1F)Oc1ccccc1-3`
29 nM

Batch request: EC50 per item, same order as input.
1. CC1=CC(C)(C)Nc2ccc3c(c21)/C(=C/c1cccc(C)c1)Oc1ccccc1-3
2. CC1=CC(C)(C)Nc2ccc3c(c21)/C(=C/c1ccc(F)c(F)c1)Oc1ccccc1-3
3. CC1=CC(C)(C)Nc2ccc3c(c21)/C(=C/c1cccc(F)c1)Oc1ccccc1-3

1: 75 nM; 2: 14.7 nM; 3: 7.6 nM

Given the compound `CC1=CC(C)(C)Nc2ccc3c(c21)/C(=C/c1cc(F)cc(F)c1)Oc1ccccc1-3` , what is its reported EC50?
47.7 nM
